Assay: HSE-luciferase reporter activators – cell-based (AID 1611)
Settings: human cells, HSE-luciferase heat shock reporter; stronger effect = higher value
Class MET: fold change at least 1. Class NOT MET: fold change below 1.

Before answering, review these 4 worked examples.
# Molecule, Assigned class
data = [
    ("CN[C@@H]1[C@H](O)[C@H](NC)[C@H]2O[C@@]3(O)C(=O)C[C@@H](C)O[C@H]3O[C@@H]2[C@H]1O", "MET"),
    ("c1ccc2[nH]c(-c3cscn3)nc2c1", "NOT MET"),
    ("CCN1CCCC(OC(=O)C(c2ccccc2)c2ccccc2)C1 (stereo not drawn)", "NOT MET"),
    ("CC[C@H]1OC(=O)[C@H](C)[C@@H](O[C@H]2C[C@@](C)(OC)[C@@H](O)[C@H](C)O2)[C@H](C)[C@@H](O[C@@H]2O[C@H](C)C[C@H](N(C)C)[C@H]2O)[C@](C)(O)C[C@@H](C)CN(C)[C@H](C)[C@@H](O)[C@]1(C)O", "MET"),
]

Prompt line: Given the entry `O=C1c2c(O)cccc2Cc2cccc(O)c21` , answer whether its fold change meets or surpasses 1.
Response line: NOT MET

Prompt line: Given the entry CC1CCc2cc(F)cc3c(=O)c(C(=O)O)cn1c23 (stereo not drawn) , answer whether its fold change meets or surpasses 1.
Response line: MET

Prompt line: Given the entry NC[C@@H]1O[C@H](O[C@@H]2[C@@H](CO)OC(O[C@@H]3[C@@H](O)[C@H](N)C[C@H](N)[C@H]3OC3O[C@H](CN)[C@@H](O)[C@H](O)[C@H]3N)[C@@H]2O)[C@H](N)[C@@H](O)[C@@H]1O (stereo partly drawn) , answer whether its fold change meets or surpasses 1.
Response line: NOT MET

---

Test: HSE-luciferase reporter activators – cell-based (AID 1611)
Conditions: human cells, HSE-luciferase heat shock reporter; stronger effect = higher value
Class Yes: fold change at least 0.9. Class No: fold change below 0.9.

Before answering, review these 6 worked examples.
# Compound, Assigned class
records = [
    ("Nc1ccc(S(=O)(=O)Nc2ccccn2)cc1", "No"),
    ("O=C(Cn1ccnc1[N+](=O)[O-])NCCO", "Yes"),
    ("OCc1ccccc1O[C@@H]1O[C@H](CO)[C@@H](O)[C@H](O)[C@H]1O", "Yes"),
    ("C[C@](N)(Cc1ccc(O)c(O)c1)C(=O)O", "No"),
    ("CC(=O)OCC(=O)[C@H]1CCC2C3CCC4=CC(=O)CC[C@]4(C)C3CC[C@@]21C (stereo partly drawn)", "Yes"),
    ("CC(CN(C)C)CN1c2ccccc2CCc2ccccc21 (stereo not drawn)", "Yes"),
]

Could you now consider this next compound?
Prompt line: Given the entry `O=c1c(O)cc2c(O)oc3c(=O)c(O)cc4c3c2c1CC=4O` , answer whether its fold change meets or surpasses 0.9.
Response line: Yes

---

Assay: HSE-luciferase reporter activators – cell-based (AID 1611)
Conditions: human cells, HSE-luciferase heat shock reporter; stronger effect = higher value
Class Met: fold change at least 1. Class Not met: fold change below 1.

# Compound, Assigned class
data = [
    ("CN(C)C(=O)Oc1cccc([N+](C)(C)C)c1", "Met"),
]

Prompt line: Given the entry CC[C@H]1CN2CCc3cc(OC)c(OC)cc3C2C[C@@H]1CC1NCCc2cc(OC)c(OC)cc21 (some centres not stated) , answer whether its fold change meets or surpasses 1.
Response line: Not met

Prompt line: Given the entry `NNC(=O)c1ccncc1` , answer whether its fold change meets or surpasses 1.
Response line: Not met

Prompt line: Given the entry CC(=O)O[C@]1(C(C)=O)CCC2C3C=C(Cl)C4=CC(=O)[C@@H]5C[C@@H]5[C@]4(C)C3CC[C@@]21C (some centres not stated) , answer whether its fold change meets or surpasses 1.
Response line: Met

Prompt line: Given the entry `CCCN(CCC)S(=O)(=O)c1ccc(C(=O)O)cc1` , answer whether its fold change meets or surpasses 1.
Response line: Not met

Prompt line: Given the entry `N[C@@H](CCC(=O)N[C@@H](CS)C(=O)NCC(=O)O)C(=O)O` , answer whether its fold change meets or surpasses 1.
Response line: Met

---

fold change values, listed per item
Experiment: HSE-luciferase reporter activators – cell-based (AID 1611)
Settings: human cells, HSE-luciferase heat shock reporter; stronger effect = higher value
Write the number on its own, no unit after it.

Guide cases for fold change, answers given:
# Molecule, Measurement label, Observed measurement
rows = [
    ("COc1c(C)c2c(c(O)c1C/C=C(\\C)CCC(=O)O)C(=O)OC2", "fold change", 0.85),
    ("COc1ccccc1OCC(O)CO (stereo unspecified)", "fold change", 1),
    ("CC(C)NCC(O)COc1ccc(CC(N)=O)cc1 (stereo unspecified)", "fold change", 0.76),
    ("CC/C(=C(\\c1ccccc1)c1ccc(OCCN(C)C)cc1)c1ccccc1", "fold change", 0.77),
    ("O=c1[nH]cc(F)c(=O)[nH]1", "fold change", 0.52),
    ("CC(C)NCC(O)COc1cccc2ccccc12 (stereo unspecified)", "fold change", 0.95),
]

Prompt line: Recorded fold change for CC(=O)[C@H]1CCC2C3CC=C4C[C@@H](O)CC[C@]4(C)C3CC[C@@]21C (stereo partly specified) , please?
Response line: 0.92

Prompt line: Recorded fold change for `CCCn1c(=O)c2[nH]c(C3CCCC3)nc2n(CCC)c1=O` , please?
Response line: 0.74

Prompt line: Recorded fold change for NC(=O)NC1NC(=O)NC1=O (stereo unspecified) , please?
Response line: 0.91

Prompt line: Recorded fold change for `NC(N)=NC(=O)c1nc(Cl)c(N)nc1N` , please?
Response line: 0.89

Prompt line: Recorded fold change for `CC(C)Oc1ccc2c(=O)cc(-c3ccccc3)oc2c1` , please?
Response line: 1.28

Value source: PubChem BioAssay AID1611
